- measurement.protocol: chemical genetic growth profiling, strain panel (AID 1159580);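 further: tested at 20 µM; growth read once vehicle control cultures reached saturation at 30 °C; 1 = growth at the plate median or of vehicle wells; lower values mean less growth of the strain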
- study.conditions: S. cerevisiae deletion strains, growth OD, locus YOR290C, strain snf2, hits give low values
Hit rate of the full screen: of about 5,500 compounds, about 2,000 (36%) were called active. Another 18% or so got no clear call; they are omitted. This is one part of the list.
metric: normalized growth

Record excerpt, results attached:
> print(dat)
                                   compound    recorded.value
1  COc1ccc(C2Sc3ccccc3N(CCN(C)C)C(=O)C2OC(C)=O)cc1 (configuration not stated)  0.998 (inactive)
2  CC(CCC(=O)O)[C@H]1CCC2C3CC[C@@H]4C[C@H](O)CC[C@]4(C)C3C=C[C@@]21C (some centres not stated)     0.83 (active)
3                           O=C(O)C1=CCCNC1  0.985 (inactive)
4              CN(C)CCCN1c2ccccc2Sc2ccccc21   1.01 (inactive)
5  C[C@H](CCC(=O)O)[C@H]1CCC2C3C(=O)CC4CC(=O)CC[C@]4(C)C3CC(=O)[C@@]21C (some centres not stated)   1.02 (inactive)
6         CN(C)CCCN1c2ccccc2CCc2ccc(Cl)cc21  0.903 (inactive)

Below: the item to evaluate.
Reported normalized growth ( CC(=O)Nc1ccc(S(=O)(=O)Nc2onc(C)c2C)cc1 ) = 0.964 (inactive)
